# Measurement target: cAMP-dependent protein kinase catalytic subunit PRKX (Homo sapiens);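 also: each value is the mean percent inhibition of the kinase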
# Sequence (whole entry): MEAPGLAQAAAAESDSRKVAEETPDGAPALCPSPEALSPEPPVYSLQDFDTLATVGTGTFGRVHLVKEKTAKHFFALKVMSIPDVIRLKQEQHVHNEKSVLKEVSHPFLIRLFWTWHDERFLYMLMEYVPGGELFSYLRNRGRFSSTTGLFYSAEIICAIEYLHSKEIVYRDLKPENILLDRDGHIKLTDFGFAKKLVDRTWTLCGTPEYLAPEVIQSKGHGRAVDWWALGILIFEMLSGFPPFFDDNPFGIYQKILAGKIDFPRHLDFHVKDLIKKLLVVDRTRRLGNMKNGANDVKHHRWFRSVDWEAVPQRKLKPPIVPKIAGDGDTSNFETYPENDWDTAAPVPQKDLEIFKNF
# Condition summary: at 1 µM
Kindly supply the reported inhibition values for the records listed here.
Numbers only here, please. The scale is %.

Exercise: Requested read-out: inhibition. Entry: Cc1cccc(Nc2ncc(-c3ccccc3)o2)c1
Key: 12

Exercise: Also need COc1ccc(-c2oc3ncnc(N)c3c2-c2ccc(NC(=O)Nc3cc(C(F)(F)F)ccc3F)cc2)cc1 , thanks.
Key: 3.47

Exercise: Also need CCN(CC)S(=O)(=O)c1ccc(OC)c(Nc2ncc(-c3ccccc3)o2)c1 , thanks.
Key: 0.62

Exercise: Also need NS(=O)(=O)c1ccc(Nc2ncc(-c3ccccc3)o2)cc1 , thanks.
Key: 2.5

Exercise: Also need COc1ccc2[nH]c3c4[nH]c5ccc(OC)cc5c4c4c(c3c2c1)C(=O)NC4=O , thanks.
Key: 46

Exercise: Also need CCn1c(-c2nonc2N)nc2c(C#CC(C)(C)O)ncc(OC3CCNCC3)c21 , thanks.
Key: 89

Exercise: Also need Cc1ccc(O)cc1Nc1ccnc2cc(-c3ccccn3)ccc12 , thanks.
Key: -2.49

Exercise: Also need CNC(=O)c1cncc(/C=C/c2ccccc2Cl)c1 , thanks.
Key: 2.62

Exercise: Also need CCN1CCC(CC(=O)Nc2n[nH]c3nnc(-c4cccc(F)c4F)cc23)CC1 , thanks.
Key: 0.65

Exercise: Also need Clc1ccc(-c2nn3ncccc3c2-c2ccnc(Nc3ccccc3)n2)cc1 , thanks.
Key: 2.02

Exercise: Also need CS(=O)(=O)CCNCc1ccc(-c2ccc3ncnc(Nc4ccc(OCc5ccccc5)c(C(F)(F)F)c4)c3c2)o1 , thanks.
Key: 2.08

Exercise: Also need COc1cccc(-c2c[nH]c3c(N/N=C/c4ccncc4)ncnc23)c1 , thanks.
Key: -0.16

Exercise: Also need CCn1c(-c2nonc2N)nc2cnc(Oc3cccc(NC(=O)c4ccc(N(C)C)cc4)c3)cc21 , thanks.
Key: 55.8

Exercise: Also need Nc1nc(-c2ccc(F)cc2)c(-c2ccc3ncccc3n2)s1 , thanks.
Key: 3.14

Exercise: Also need Cc1cccc2c1NC(=O)/C2=N\Nc1ccc(S(N)(=O)=O)cc1 , thanks.
Key: 2.2

Exercise: Also need CC(=O)Nc1cccc(C#Cc2cncnc2Nc2ccc(OCc3cccc(F)c3)c(Cl)c2)c1 , thanks.
Key: 1.17

Exercise: Also need Nc1ncc(-c2cccc(S(N)(=O)=O)c2)c2scc(-c3ccc(F)c(Cl)c3)c12 , thanks.
Key: 1.14

Exercise: Also need COC(=O)c1sc(-n2cnc3cc(OC)c(OC)cc32)cc1OCc1ccccc1C(F)(F)F , thanks.
Key: 0.19

Exercise: Also need N#Cc1c(NC(=O)CN2CCOCC2)sc2c1CCCC2 , thanks.
Key: 3.49

Exercise: Also need Cc1ccc2c(-c3ccnc(Nc4ccccc4)n3)c(-c3ccc(F)cc3)nn2n1 , thanks.
Key: -0.36

Exercise: Also need CNC(=O)c1cc(-c2ccc(F)cc2)cc(-c2ccc(S(=O)(=O)N3CCCC3)cc2)c1N , thanks.
Key: 1.29

* * *

# Measurement target: Vascular endothelial growth factor receptor 1 (Homo sapiens)
# Condition summary: at 1 µM
# Description: GSK_PKIS: FLT1 mean inhibition at 1 uM [Nanosyn]
Assay readout: inhibition (%)
Numbers only here, please. The scale is %.

Exercise: Requested read-out: inhibition. Entry: N#Cc1c(NC(=O)c2ccc(F)cc2)sc2c1CCCC2
Key: 1.63

Exercise: Also need NS(=O)(=O)c1ccc(N/N=C2\C(=O)Nc3ccc4ncccc4c32)cc1 , thanks.
Key: 59.6

Exercise: Also need Nc1ncc(-c2cccc(S(N)(=O)=O)c2)c2scc(-c3ccc(F)c(Cl)c3)c12 , thanks.
Key: 14.9

Exercise: Also need NC(=O)c1sc(-n2cnc3ccc(C(F)(F)F)cc32)cc1OCc1ccccc1Br , thanks.
Key: 4.1

Exercise: Also need O=C(O[C@H]1CN[C@H](C#Cc2cc3ncnc(Nc4ccc(Cc5ccccc5)cc4)c3s2)C1)N1CCOCC1 , thanks.
Key: 2.35

Exercise: Also need CS(=O)(=O)CCNCc1ccc(-c2ccc3ncnc(Nc4ccc(OCc5ccccc5)c(C(F)(F)F)c4)c3c2)o1 , thanks.
Key: 0.39

Exercise: Also need O=C(Nc1n[nH]c2cc(-c3ccc(F)cc3)ccc12)C1CC1 , thanks.
Key: 0.79

Exercise: Also need CCn1cc(-c2ccnc3[nH]ccc23)c(-c2cccc(NC(=O)Nc3ccc(OCc4ccccc4)cc3)c2)n1 , thanks.
Key: 2.9

Exercise: Also need COc1ccc(-c2oc3ncnc(N)c3c2-c2ccc(NC(=O)Nc3cc(C(F)(F)F)ccc3F)cc2)cc1 , thanks.
Key: 96.7

Exercise: Also need CCN(CC)S(=O)(=O)c1ccc(OC)c(Nc2ncc(-c3ccccc3)o2)c1 , thanks.
Key: 30.6

Exercise: Also need c1ccc(COc2ccc(Nc3ncnc4ccc(-c5ccco5)cc34)cc2)cc1 , thanks.
Key: -0.13

Exercise: Also need O=S(=O)(CCNCc1ccc(-c2ccc3ncnc(Nc4ccc(OCc5cccc(F)c5)c(Cl)c4)c3c2)o1)c1ccccc1 , thanks.
Key: 4.7

Exercise: Also need Nc1nc(-c2cccc(Cl)c2)c(-c2ccc3ncccc3n2)s1 , thanks.
Key: 3.45

Exercise: Also need CC(=O)NCc1cccc(C#Cc2cncnc2Nc2ccc(OCc3cccc(F)c3)c(Cl)c2)c1 , thanks.
Key: 0.27

Exercise: Also need CCn1c(-c2nonc2N)nc2c(C#CC(C)(C)O)nc(OC[C@H](N)c3ccccc3)cc21 , thanks.
Key: 30.4

Exercise: Also need CC1=C(C(=O)Nc2cc(Cl)c3[nH]ncc3c2)C(c2ccc(C(F)(F)F)cc2)CC(=O)N1 (stereo not given) , thanks.
Key: -1.53

Exercise: Also need CCc1nn2ncccc2c1-c1ccnc(NC2CC2)n1 , thanks.
Key: 2.1

Exercise: Also need CS(=O)(=O)CCNCc1coc(-c2ccc3ncnc(Nc4ccc(OCc5ccccc5)cc4)c3c2)c1 , thanks.
Key: 2.3

Exercise: Also need COc1ccc(-c2cc3c(N)ncnc3o2)cc1 , thanks.
Key: 0.12

Exercise: Also need Cc1ccc2c(-c3ccnc(Nc4ccccc4)n3)c(-c3ccc(F)cc3)nn2n1 , thanks.
Key: 22.1

* * *

# Measurement target: Tyrosine-protein kinase Fer (Homo sapiens) (UniProt P16591);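 also: reported figures are averaged percent inhibition of FER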
# Sequence (P16591 whole entry, looked up): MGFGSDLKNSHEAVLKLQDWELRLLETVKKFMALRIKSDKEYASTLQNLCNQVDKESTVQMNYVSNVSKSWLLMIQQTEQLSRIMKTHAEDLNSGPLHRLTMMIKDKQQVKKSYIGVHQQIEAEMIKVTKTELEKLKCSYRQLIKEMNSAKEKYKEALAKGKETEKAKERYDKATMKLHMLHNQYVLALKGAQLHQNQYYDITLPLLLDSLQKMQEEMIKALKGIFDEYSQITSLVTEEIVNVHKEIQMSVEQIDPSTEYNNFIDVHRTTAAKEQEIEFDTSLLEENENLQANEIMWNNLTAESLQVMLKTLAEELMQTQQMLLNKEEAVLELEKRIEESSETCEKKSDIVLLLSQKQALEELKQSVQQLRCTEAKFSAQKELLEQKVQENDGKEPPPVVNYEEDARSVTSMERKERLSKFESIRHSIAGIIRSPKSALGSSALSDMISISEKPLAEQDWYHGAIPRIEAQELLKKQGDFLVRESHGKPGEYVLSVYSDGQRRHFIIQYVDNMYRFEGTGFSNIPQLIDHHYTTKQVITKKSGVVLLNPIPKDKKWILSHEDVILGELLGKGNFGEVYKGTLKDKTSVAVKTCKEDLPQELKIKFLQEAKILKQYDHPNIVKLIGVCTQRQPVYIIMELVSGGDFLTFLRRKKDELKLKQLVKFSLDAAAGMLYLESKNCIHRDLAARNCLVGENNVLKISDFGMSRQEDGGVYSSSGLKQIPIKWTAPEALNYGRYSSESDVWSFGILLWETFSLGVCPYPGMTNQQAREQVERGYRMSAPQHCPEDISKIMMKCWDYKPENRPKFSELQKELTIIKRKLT
# Condition summary: at 0.1 µM
Assay readout: inhibition (%)
Numbers only here, please. The scale is %.

Exercise: Requested read-out: inhibition. Entry: COc1cccc(-c2c[nH]c3c(N/N=C/c4ccncc4)ncnc23)c1
Key: 4.27

Exercise: Also need CS(=O)(=O)CCNCc1coc(-c2ccc3ncnc(Nc4ccc(OCc5ccccc5)cc4)c3c2)c1 , thanks.
Key: -0.6

Exercise: Also need Fc1cccc(COc2ccc(Nc3ncnc4sc(-c5ccco5)cc34)cc2Cl)c1 , thanks.
Key: 1.71

Exercise: Also need CNC(=O)c1cncc(/C=C/c2ccccc2Cl)c1 , thanks.
Key: 2.91

Exercise: Also need COc1cc(/C=N/Nc2ncnc3[nH]ncc23)ccc1O , thanks.
Key: 3.03

Exercise: Also need COc1cc2ncn(-c3cc(OCc4ccccc4C(F)(F)F)c(C(=O)N(C)C)s3)c2cc1OC , thanks.
Key: -0.2

Exercise: Also need CCn1cc(-c2ccnc3[nH]ccc23)c(-c2cccc(NC(=O)Nc3ccc(OCc4ccccc4)cc3)c2)n1 , thanks.
Key: 0.08

Exercise: Also need CS(=O)(=O)CCNCc1ccc(-c2ccc3ncnc(Nc4ccc(OCc5ccccc5)c(C(F)(F)F)c4)c3c2)o1 , thanks.
Key: 4.03

Exercise: Also need Cc1cccc2c1NC(=O)/C2=N\Nc1ccc(S(N)(=O)=O)cc1 , thanks.
Key: 1.4

Exercise: Also need COc1ccc(CNC(=O)c2ccc(-c3cc(-c4nnc(C)o4)ccc3C)cc2)cc1 , thanks.
Key: 2.8

* * *

# Measurement target: Ephrin type-B receptor 4 (Homo sapiens) (UniProt P54760);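 also: reported value is the mean percent inhibition of EPHB4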
# Sequence (whole entry): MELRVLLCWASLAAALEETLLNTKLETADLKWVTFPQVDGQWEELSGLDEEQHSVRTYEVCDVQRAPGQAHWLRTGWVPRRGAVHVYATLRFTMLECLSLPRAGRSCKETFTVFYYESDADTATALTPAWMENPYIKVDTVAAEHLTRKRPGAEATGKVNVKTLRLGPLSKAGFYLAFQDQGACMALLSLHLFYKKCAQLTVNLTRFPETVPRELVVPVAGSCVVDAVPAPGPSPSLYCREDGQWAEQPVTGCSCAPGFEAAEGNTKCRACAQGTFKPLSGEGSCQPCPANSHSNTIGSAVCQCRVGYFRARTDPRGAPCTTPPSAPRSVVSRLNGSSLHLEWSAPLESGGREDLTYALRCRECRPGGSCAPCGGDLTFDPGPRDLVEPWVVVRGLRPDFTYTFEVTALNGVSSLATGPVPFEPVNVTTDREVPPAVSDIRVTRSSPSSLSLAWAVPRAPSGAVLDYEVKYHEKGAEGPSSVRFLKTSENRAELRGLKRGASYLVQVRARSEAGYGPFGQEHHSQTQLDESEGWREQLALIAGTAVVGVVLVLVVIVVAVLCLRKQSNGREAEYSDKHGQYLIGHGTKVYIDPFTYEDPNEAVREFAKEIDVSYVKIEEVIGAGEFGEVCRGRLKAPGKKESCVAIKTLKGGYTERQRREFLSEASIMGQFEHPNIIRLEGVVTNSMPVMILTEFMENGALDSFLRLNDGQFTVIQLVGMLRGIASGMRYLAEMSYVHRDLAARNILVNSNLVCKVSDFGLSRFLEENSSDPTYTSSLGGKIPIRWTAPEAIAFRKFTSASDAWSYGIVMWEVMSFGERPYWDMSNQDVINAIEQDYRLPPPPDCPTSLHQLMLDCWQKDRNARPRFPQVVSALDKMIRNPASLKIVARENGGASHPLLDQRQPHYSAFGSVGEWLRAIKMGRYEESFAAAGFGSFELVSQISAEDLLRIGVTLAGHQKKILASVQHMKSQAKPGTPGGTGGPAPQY
# Condition summary: at 1 µM
The threshold is inclusive: inhibition of exactly 8% counts as 1; values below receive -1.

Exercise: Please indicate if the recorded inhibition for COc1ccc(-c2oc3ncnc(N)c3c2-c2ccc(NC(=O)Nc3cc(C(F)(F)F)ccc3F)cc2)cc1 meets or exceeds 8%.
Key: 1

Exercise: Also need COc1cccc(-n2ncc3c(N/N=C/c4ccc(F)cc4)ncnc32)c1 , thanks.
Key: -1

Exercise: Also need COC(=O)Nc1nc2ccc(Oc3ccc(NC(=O)Nc4cccc(Cl)c4)cc3)cc2[nH]1 , thanks.
Key: 1

Exercise: Also need NS(=O)(=O)c1ccc(N/N=C2\C(=O)Nc3ccc4ncccc4c32)cc1 , thanks.
Key: 1

Exercise: Also need COc1cc(/C=N/Nc2ncnc3[nH]ncc23)ccc1O , thanks.
Key: 1

Exercise: Also need NS(=O)(=O)c1ccc(Nc2ncc(-c3ccccc3)o2)cc1 , thanks.
Key: -1

Exercise: Also need N#Cc1c(NC(=O)CN2CCOCC2)sc2c1CCCC2 , thanks.
Key: -1

Exercise: Also need NC(=O)c1sc(-n2cnc3ccc(C(F)(F)F)cc32)cc1OCc1ccccc1Br , thanks.
Key: -1

Exercise: Also need CN1CCC(n2cnc(-c3ccc(F)cc3)c2-c2ccnc(N)n2)CC1 , thanks.
Key: -1
